Consider the following molecules; for each one, report its GI50.
Test system: SK-MEL-5
Test: NCI tumour cell line growth inhibition, 48 h
Calls of active or inactive are those of the source. No stated cut-off is given here; in the data, active = GI50 up to about 1.1 µM and inactive = higher.

Below: 3 molecules and their reported GI50.
>>> result("Cc1ccc2nc3sc(=O)sc3nc2c1")
"15.6 µM (inactive)"
>>> result("O=C(O)c1ccc(C2C(=O)N[C@@H]3CCC[C@H]23)cc1 (stereo partly drawn)")
"> 100 µM (inactive)"
>>> result("C/C=C\\C(CC(=O)NCCc1cn(C(=O)OCc2ccccc2)c2ccccc12)CC(=O)OC (stereo not drawn)")
"34.9 µM (inactive)"

Could I get GI50 for every one of these entries?
1. CSC1=NN(c2ccccc2)C(=O)C1=C(SC)SC
2. CN1C(C(=O)Nc2ccccn2)=C(O)c2ccccc2S1(=O)=O

A)
["16.3 µM (inactive)", "> 100 µM (inactive)"]

Hi there! I need GI50 for each item below, if you can.
1. O=C(CC(C(=O)c1cccs1)c1ccsc1)c1ccco1 (stereo not drawn)
2. Cc1ccc(-n2cc(/C(N)=N/O)c3ccccc3c2=O)cc1
3. Cc1nc(Nc2nc3ccccc3[nH]2)[nH]c(=O)c1CCO

A)
1: 27.7 µM (inactive); 2: > 100 µM (inactive); 3: 70.3 µM (inactive)

====

System: SN12C
Assay: NCI tumour cell line growth inhibition, 48 h
Calls of active or inactive are those of the source. Cut-off read from the data, not from the text of the source: active = GI50 up to about 1.1 µM and inactive = higher.
For each of the molecules below, state its GI50.

Illustrative cases are given below, each with its answer.
>>> result("[O-][n+]1onc2c1CCC(=N\\O)/C2=N/Nc1ccccc1")
"> 100 µM (inactive)"
>>> result("CCOC(=O)c1c(N2CCCC2)nsc1Nc1ccccc1")
"> 100 µM (inactive)"

Proceeding to the next molecule to report its GI50.
Q) // fetch GI50 given entry "CCC(=O)NC(OCC1(CC)COC1)(C(F)(F)F)C(F)(F)F"
A) > 100 µM (inactive)

====

Would you mind telling me the reported GI50 of each entry?
Test system: SF-539
Test: NCI tumour cell line growth inhibition, 48 h
The source made the active and inactive calls. Cut-off read from the data, not from the text of the source: active = GI50 up to about 1.1 µM and inactive = higher.

Record excerpt, results attached:
>>> result("CC(CCC[C@H](C)CO)[C@H]1[C@@H](O)C(O)C2[C@@H]3C[C@@H](O)C4(O)C[C@@H](O)CC[C@]4(C)C3CC[C@@]21C (some centres undefined)")
"> 100 µM (inactive)"
>>> result("CCOC(=O)C1=C(C)NC(C)=C(C(=O)OCC)C1c1ccc(Cl)cc1")
"18.8 µM (inactive)"
>>> result("Clc1ccc(CCc2ccncn2)c(Cl)c1")
"> 100 µM (inactive)"

# batch size: 3; output GI50 per entry
1. CN(C)C(=S)/N=c1\ss/c(=N\S(=O)(=O)c2ccccc2)n1-c1ccccc1
2. CCc1nc(N)nc(N)c1-c1ccc(Cl)c(/N=C/N(C)C)c1
3. COc1ccccc1/C=C(\NC(=O)c1ccccc1)c1nc2ccccc2[nH]1

A)
1. 19.7 µM (inactive)
2. 45.3 µM (inactive)
3. 53.7 µM (inactive)

====

Tested on: OVCAR-5
Assay: NCI tumour cell line growth inhibition, 48 h
Calls of active or inactive are those of the source. Cut-off read from the data, not from the text of the source: active = GI50 up to about 1.1 µM and inactive = higher.
Form entry, call: pick from active, inactive

>>> discrete_label("COC1OC(Cn2c(C)nc(Br)c2Br)C(O)C(O)C1O (stereo not given)")
"inactive"
>>> discrete_label("CCC1(O)C(=O)OCc2c1cc1n(c2=O)Cc2cc3ccccc3nc2-1 (stereo not given)")
"active"
>>> discrete_label("C(CCC[Te][Te]CCCCCCOC1CCCCO1)CCOC1CCCCO1 (stereo not given)")
"inactive"
>>> discrete_label("O/N=N/c1ccc(Sc2ccc(/N=N/O)cn2)nc1")
"inactive"

Could you now look at the following molecule, please?
Q) Dear colleague, could you share the recorded outcome for "CC(C)OC(=O)NNc1cccc(Cl)c1" when you have a moment?
A) inactive

====

Consider the following molecules; for each one, report its GI50.
Test system: SK-MEL-2
Experiment: NCI tumour cell line growth inhibition, 48 h
Activity calls are given as the source filed them. Rule as the data show it: active = GI50 up to about 1.1 µM and inactive = higher.

Guide cases for GI50, answers given:
>>> result("C(CCC[Te][Te]CCCCCCOC1CCCCO1)CCOC1CCCCO1 (stereo not given)")
"13.3 µM (inactive)"
>>> result("COc1ccc2oc3c(OC)c(OC)c(OC)cc3c(=O)c2c1")
"> 100 µM (inactive)"
>>> result("O=c1[nH]c2c(c(=O)[nH]1)SC(c1ccccc1)C2 (stereo not given)")
"93.8 µM (inactive)"
>>> result("CCC(=O)NC(OCC1(CC)COC1)(C(F)(F)F)C(F)(F)F")
"> 100 µM (inactive)"

Alright, here's another molecule for you.
Q) Consider the molecule "CC12CC3(C)CC(C)(C1)CC(N=[N+]=[N-])(C2)C3" . State its measured GI50.
A) > 100 µM (inactive)

====

Please provide measured GI50 for the entries that follow.
Test system: LOX IMVI
Assay: NCI tumour cell line growth inhibition, 48 h
Calls of active or inactive are those of the source. No stated cut-off is given here; in the data, active = GI50 up to about 1.1 µM and inactive = higher.

Worked cases, answers included:
>>> result("Clc1ccc(Cc2nc3ccccc3nc2-c2cccc(Br)c2)cc1")
"1.97 µM (inactive)"
>>> result("CC#CC(O)(C(=O)OC1CC2CCC(C1)N2C)C1CCCC1 (stereo unspecified)")
"> 100 µM (inactive)"
>>> result("CN1C(=O)C(C)(C)NS1(=O)=O")
"> 100 µM (inactive)"
>>> result("COC(=O)[C@H](C)N(C)C(=O)[C@H](C)N1[C@@H](c2ccccc2)COC1(C)C")
"> 100 µM (inactive)"
>>> result("COc1cccc2c1OC(c1cccc3ccccc13)C([N+](=O)[O-])=C2 (stereo unspecified)")
"1.04 µM (active)"

Below is a list of compounds. For each, state its recorded GI50.
1. O=c1[nH]c2ccccc2cc1C(Cl)=C(Cl)Cl
2. O=c1cnn(CCOCP(=O)(O)O)c(=O)[nH]1
3. CCN(CC)c1c(N(CC)CC)c(=O)c1=O

A)
> 100 µM (inactive)
> 100 µM (inactive)
11.8 µM (inactive)

====

Tested on: NCI-H522
Assay: NCI tumour cell line growth inhibition, 48 h
Calls of active or inactive are those of the source. Cut-off read from the data, not from the text of the source: active = GI50 up to about 1.1 µM and inactive = higher.
Your response should consist of one outcome taken from active, inactive

Study these solved cases before continuing.
>>> discrete_label("O=C1c2cccc3cccc(c23)C(=O)N1CCCNCCCNCCCCNCCCNCCCN1C(=O)c2cccc3cccc(c23)C1=O")
"active"
>>> discrete_label("O=C(O)C/C(=C\\c1ccccc1)C(=O)O")
"inactive"
>>> discrete_label("N/C(=N\\O)N/N=C/c1ccc(O)c(O)c1")
"inactive"
>>> discrete_label("CCCN(CCC)c1c([N+](=O)[O-])cc(S(N)(=O)=O)cc1[N+](=O)[O-] [ORYZALIN]")
"inactive"
>>> discrete_label("COc1ccc(NC(=S)NNC(=O)c2cc(-c3ccccc3)nc3ccccc23)cc1")
"inactive"

Q) Fill in: this test's call for C=C1CC(c2ccc(OCCCN3C(=O)c4ccccc4C3=O)c(OC)c2)OC1=O (configuration not stated) is ___
A) active

Q) Tell me the assay call for "O=c1c(C(c2ccc3c(c2)Cc2ccccc2-3)c2c(O)oc3ccccc3c2=O)c(O)oc2ccccc12" please.
A) inactive

====

System: HT-29
Experiment: NCI tumour cell line growth inhibition, 48 h
Activity calls are given as the source filed them. No stated cut-off is given here; in the data, active = GI50 up to about 1.1 µM and inactive = higher.
PARAMETER: GI50

For every item in the list below, what is its measured GI50?
1. CC(C)OC(=O)NNc1cccc(Cl)c1
2. N#CCCN(CCN(C(=O)Nc1ccccc1)c1ccccc1)C(=O)Nc1ccccc1
3. CCN(CC)CCNCc1cc(Cl)cc2c1OCOC2

A)
1. > 100 µM (inactive)
2. > 100 µM (inactive)
3. > 10 µM (inactive)

====

Provide the recorded GI50 for the entries that follow.
Tested on: HOP-62
Assay: NCI tumour cell line growth inhibition, 48 h
The source made the active and inactive calls. No stated cut-off is given here; in the data, active = GI50 up to about 1.1 µM and inactive = higher.

Sample records with GI50:
>>> result("Cc1nc2sccn2c1C(=O)OCCOCCOCCOCCOC(=O)c1c(C)nc2sccn12")
"> 100 µM (inactive)"
>>> result("COc1ccc(C2c3c(-c4ccccc4)nn(-c4ccccc4)c3Oc3ncn(N)c(=N)c32)cc1OC (centres undefined)")
"1.77 µM (inactive)"
>>> result("N#Cc1c(-c2ccccc2)c(C#N)c(=S)n(C2OC(CO)C(O)C(O)C2O)c1O (centres undefined)")
"> 100 µM (inactive)"
>>> result("O=[N+]([O-])c1cc(Cl)cc2c1nc(NCCO)c1ccccc12")
"7.24 µM (inactive)"
>>> result("Cc1cc(C)nc(NS(=O)(=O)c2ccc(Nc3c4ccccc4nc4c(C(=O)Nc5ccc(S(N)(=O)=O)cc5)cccc34)cc2)n1")
"> 100 µM (inactive)"

Look at each compound and report its GI50.
1. Cc1c(-c2coc(-c3ccc(Cl)cc3)n2)c(=O)n(-c2ccccc2)n1C
2. CN(C)CS/C(N)=N\C(O)C(Cl)(Cl)Cl (centres undefined)
3. O=C1/C=C(/c2ccc(O)cc2)[C@@H](O)Cc2ccc(O)cc2O1

A)
1. > 100 µM (inactive)
2. > 100 µM (inactive)
3. 61.4 µM (inactive)

// for each compound below, give its GI50
1. C=C1CC(c2ccc(OCCCN3C(=O)c4ccccc4C3=O)c(OC)c2)OC1=O (centres undefined)
2. Oc1c(NCn2nc(CCCCCCCCc3nn(CNc4ccc5ccccc5c4O)c(=S)o3)oc2=S)ccc2ccccc12

A)
["15.6 µM (inactive)", "94.2 µM (inactive)"]

Here are 4 compounds. What values of GI50 were reported for them?
1. C/C(=N\O)c1ccc2ccc3ccccc3c2c1
2. COC(=O)C(C(=O)C(=O)Nc1ccccc1C(C)=O)c1nc2ccc(Cl)cc2nc1O (centres undefined)
3. O=C(O)C1(Nc2ccc(Cl)cc2)CCCC1
4. CCc1nc(N)nc(N)c1-c1ccc(Cl)c(/N=C/N(C)C)c1

A)
1: > 100 µM (inactive); 2: > 100 µM (inactive); 3: > 100 µM (inactive); 4: 63.7 µM (inactive)
